Molecular target: T1, human common cytokine receptor γ-chain (IL-2Rγ) (human, UniProt P31785 23-262, limits assumed)
T1 construct: Recombinant human IL-2Rγ protein, coated (ELISA) or amine-coupled to a CM5 chip (SPR); also called hu IL-2R; CD132
T1 sequence: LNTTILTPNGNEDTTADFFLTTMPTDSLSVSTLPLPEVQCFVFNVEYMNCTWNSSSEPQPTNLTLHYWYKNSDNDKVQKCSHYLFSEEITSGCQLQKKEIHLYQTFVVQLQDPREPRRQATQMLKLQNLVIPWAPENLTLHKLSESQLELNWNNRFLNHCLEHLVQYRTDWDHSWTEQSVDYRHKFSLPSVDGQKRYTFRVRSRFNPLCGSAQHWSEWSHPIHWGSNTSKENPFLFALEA
Assay: P.E. off-rate SPR
Method: SPR was performed to determine dissociation rates using Biacore 3000 instrument (GE Healthcare). Briefly, human and mouse IL-2R proteins were immobilized on carboxylmethyl dextran sensor chip (CM5) at approximately 2500 RUs using amine coupling in acetate buffer (GE Healthcare). The VHH-containing P.E. were loaded with a flow rate of 30 uL/min and the off-rates were measured over a 120s period.
Please respond with reported koff for every item in the list.
One number for each entry, in s⁻¹.

Take a look at these entries with their results.
FJ1427_P035MP07G03 (VHH, tested as periplasmic extract; also called Clone nr) VHH: QVQLVESGGGLVQAGGSLRLSCAASGRTLSRYAMGWFRQAPGKEREFVTANSWGGDTYYADSVQGRFTFSRDNAKNTVYLQMNSLQPEDTAVYYCAAAPTSFATTAYSSSNSYAYWGQGTQVTVSS | 0.00309
FJ1427_P035MP07G08 (VHH, tested as periplasmic extract; also called Clone nr) VHH: QVQLVESGGGLVQAGGSLRLSCAASGRTLSRYAMGWFRQAPGREREFVTANSWGGDTYYADSVQGRFTFSRDNAKNTVYLQMSSLQPEDTAVYYCAAAPTSFATTAYSSSNSYAYWGQGTQVTVSS | 0.003

## Input If you can, please state the reported koff value of FJ1427_P035MP07F04 (VHH, tested as periplasmic extract; also called Clone nr; 606) VHH: EVQLVESGGGLVQAGGSLRLSCAASGRTLSRYAMGWFRQAPGKEREFVTANSWGGDTYYADSVQGRFTFSRDNAKNTVYLQMNSLQPEDTAVYYCAAAPTSFATTAYSSSNSYAYWGQGTQVTVSS .
## Output 0.00296
